target_of_assay: HCMV polymerase (Human cytomegalovirus, UniProt P08546)
Construct: made in house; host or cells: recombinant baculovirus-infected SF-9 cells
Sequence (P08546 whole entry): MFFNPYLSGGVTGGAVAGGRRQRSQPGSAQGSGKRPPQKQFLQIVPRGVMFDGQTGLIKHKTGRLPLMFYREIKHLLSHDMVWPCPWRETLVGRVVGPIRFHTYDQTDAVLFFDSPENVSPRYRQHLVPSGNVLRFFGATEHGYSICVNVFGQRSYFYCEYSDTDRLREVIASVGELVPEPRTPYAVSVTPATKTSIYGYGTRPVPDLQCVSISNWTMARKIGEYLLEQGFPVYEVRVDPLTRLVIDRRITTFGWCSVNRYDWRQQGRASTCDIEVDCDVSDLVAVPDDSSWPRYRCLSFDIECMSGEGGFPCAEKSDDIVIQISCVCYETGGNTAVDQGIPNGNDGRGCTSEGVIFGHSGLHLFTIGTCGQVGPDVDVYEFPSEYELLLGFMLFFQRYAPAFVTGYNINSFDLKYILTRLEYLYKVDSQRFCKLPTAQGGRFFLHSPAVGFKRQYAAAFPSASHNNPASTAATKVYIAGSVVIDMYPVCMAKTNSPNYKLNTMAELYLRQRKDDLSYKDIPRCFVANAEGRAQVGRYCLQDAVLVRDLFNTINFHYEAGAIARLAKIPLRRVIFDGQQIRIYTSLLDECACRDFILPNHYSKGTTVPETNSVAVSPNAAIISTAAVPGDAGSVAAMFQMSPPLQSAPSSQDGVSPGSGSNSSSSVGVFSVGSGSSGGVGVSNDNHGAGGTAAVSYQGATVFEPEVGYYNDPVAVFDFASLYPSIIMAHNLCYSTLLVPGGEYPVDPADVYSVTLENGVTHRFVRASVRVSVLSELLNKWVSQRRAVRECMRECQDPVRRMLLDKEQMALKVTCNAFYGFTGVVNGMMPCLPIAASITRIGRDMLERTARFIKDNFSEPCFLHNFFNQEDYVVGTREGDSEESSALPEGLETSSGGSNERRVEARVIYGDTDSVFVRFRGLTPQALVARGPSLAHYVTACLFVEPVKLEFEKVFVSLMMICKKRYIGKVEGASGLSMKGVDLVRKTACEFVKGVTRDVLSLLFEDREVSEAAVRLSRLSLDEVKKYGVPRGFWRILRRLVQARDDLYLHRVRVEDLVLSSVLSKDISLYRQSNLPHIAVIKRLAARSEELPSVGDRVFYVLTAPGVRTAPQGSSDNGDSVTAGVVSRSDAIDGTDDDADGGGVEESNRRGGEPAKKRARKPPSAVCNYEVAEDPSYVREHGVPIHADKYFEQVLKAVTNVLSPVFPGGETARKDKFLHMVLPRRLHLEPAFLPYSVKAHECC
protocol: HCMV polymerase scintillation proximity assay (SPA), modified version
Format: biochemical
conditions_used: CMV polymerase; Table 1; modified assay with 4.5 mM DTT, compounds in 100% DMSO; read-out: Antiviral Selective Polymerase IC50 Values, CMV
Method: The HCMV polymerase assay is performed using a scintillation proximity assay (SPA) as described in several references, such as N. D. Cook, et al., Pharmaceutical Manufacturing International, pages 49-53 (1992); K. Takeuchi, Laboratory Practice, September issue (1992); U.S. Pat. No. 4,568,649 (1986); which are incorporated by reference herein. Reactions are performed in 96-well plates. […] Plates are incubated 10 min. at 37° C., then equilibrated to room temperature, and counted on a Packard Topcount. […]
reported_metric: IC50 (µM)

{"compound": "CCCCCNS(=O)(=O)c1cc(F)c2ncc(C(=O)NCc3ccc(Cl)cc3)c(O)c2c1 [Example 235]", "unit_of_measure": "µM", "IC50": 11.8}
{"compound": "O=C(NCc1ccc(Cl)cc1)c1cc(F)c2ncc(C(=O)NCc3ccc(Cl)cc3)c(O)c2c1 [Example 185]", "unit_of_measure": "µM", "IC50": 32.8}
{"compound": "O=C(NCc1ccc(Cl)cc1)c1cnc2c(F)cc(-c3cccs3)cc2c1O [Example 75]", "unit_of_measure": "µM", "IC50": 0.17}
{"compound": "O=C(NCc1ccc(Cl)cc1)c1cnc2c(F)cc(S(=O)(=O)NCC(F)(F)F)cc2c1O [Example 243]", "unit_of_measure": "µM", "IC50": 15.5}
{"compound": "COc1ccc2[nH]cc(CCNS(=O)(=O)c3cc(F)c4ncc(C(=O)NCc5ccc(Cl)cc5)c(O)c4c3)c2c1 [Example 211]", "unit_of_measure": "µM", "IC50": 5.1}

I: O=C(NCc1ccc(Cl)cc1)c1cnc2c(F)cc(S(=O)(=O)NCc3ccccn3)cc2c1O [Example 199]
II: O=C(NCc1ccc(Cl)cc1)c1cnc2c(F)cc(S(=O)(=O)NCCOCCO)cc2c1O [Example 228]
III: O=C(NCc1ccc(Cl)cc1)c1cnc2c(Cl)c(Cl)ccc2c1O [Example 43]
Query: Sort the 3 compounds by IC50; largest first, smallest last. Dear reader, please state the labels in the requested order.
Reply: II, I, III

* * *

target_of_assay: HCMV polymerase (Human cytomegalovirus)
Construct: made in house; host or cells: recombinant baculovirus-infected SF-9 cells
protocol: HCMV polymerase scintillation proximity assay (SPA), modified version
Type: biochemical
conditions_used: CMV polymerase; Table 1; modified assay with 4.5 mM DTT, compounds in 100% DMSO; read-out: Antiviral Selective Polymerase IC50 Values, CMV
reported_metric: IC50 (µM)

{"record_smiles": "O=C(NCc1ccc(Cl)cc1)c1cnc2cc(NS(=O)(=O)c3ccc(Cl)cc3)ccc2c1O", "IC50, µM": 9.2}

1: O=C(c1ccccc1)c1ccc2ncc(C(=O)NCc3ccc(Cl)cc3)c(O)c2c1
2: CC(=O)Nc1ccc2ncc(C(=O)NCc3ccc(Cl)cc3)c(O)c2c1
Query: Identify the item whose IC50 is the smaller number: 1 or 2 Return value: the label identifying the chosen record.
Reply: 2

a: O=C(NCc1ccc(Cl)cc1)c1cnc2c(F)cc(S(=O)(=O)NCC3CC3)cc2c1O
b: COCCOCSc1cc(F)c2ncc(C(=O)NCc3ccc(Cl)cc3)c(O)c2c1
c: O=C(NCc1ccc(Cl)cc1)c1cnc2ccc(N3CCOC3=O)cc2c1O
Query: Rank the items in ascending order with respect to IC50. List the labels according to the requested ordering.
Reply: c, b, a

* * *

target_of_assay: HCMV polymerase (Human cytomegalovirus, UniProt P08546)
Construct: made in house; host or cells: recombinant baculovirus-infected SF-9 cells
protocol: HCMV polymerase scintillation proximity assay (SPA), modified version
Type: biochemical
conditions_used: CMV polymerase; Table 1; modified assay with 4.5 mM DTT, compounds in 100% DMSO; read-out: Antiviral Selective Polymerase IC50 Values, CMV
pIC50: −log10 of the molar value.
reported_metric: pIC50

Sample records with pIC50:
{"molecule": "O=C(NCc1ccc(Cl)cc1)c1cnc2ccc(Cl)cc2c1O [Example 21]", "target_of_assay": "HCMV polymerase (Human cytomegalovirus, UniProt P08546)", "reported_metric": "pIC50", "val": 5.36}
{"molecule": "CC(O)CNS(=O)(=O)c1cc(F)c2ncc(C(=O)NCc3ccc(Cl)cc3)c(O)c2c1 (centres unmarked) [Example 223]", "target_of_assay": "HCMV polymerase (Human cytomegalovirus, UniProt P08546)", "reported_metric": "pIC50", "val": 4.84}
{"molecule": "O=C(Nc1ccccc1)OCCCc1cc(F)c2ncc(C(=O)NCc3ccc(Cl)cc3)c(O)c2c1 [Example 159]", "target_of_assay": "HCMV polymerase (Human cytomegalovirus, UniProt P08546)", "reported_metric": "pIC50", "val": 5.30}

I: O=C(NCc1ccc(Cl)cc1)c1cnc2c(F)cc(Br)cc2c1O [Example 4]
II: O=C(NCc1ccc(Cl)cc1)c1cnc2cc(CCCCO)ccc2c1O [Example 140]
Query: Returns the identifier with the smallest measured pIC50 among I and II . # respond with the chosen item's label
Reply: I
(I: 5.47, II: 5.85)

* * *

IC50 tested on HSV polymerase (Human herpesvirus 1, UniProt P04293): recorded values
Sequence (P04293 whole entry): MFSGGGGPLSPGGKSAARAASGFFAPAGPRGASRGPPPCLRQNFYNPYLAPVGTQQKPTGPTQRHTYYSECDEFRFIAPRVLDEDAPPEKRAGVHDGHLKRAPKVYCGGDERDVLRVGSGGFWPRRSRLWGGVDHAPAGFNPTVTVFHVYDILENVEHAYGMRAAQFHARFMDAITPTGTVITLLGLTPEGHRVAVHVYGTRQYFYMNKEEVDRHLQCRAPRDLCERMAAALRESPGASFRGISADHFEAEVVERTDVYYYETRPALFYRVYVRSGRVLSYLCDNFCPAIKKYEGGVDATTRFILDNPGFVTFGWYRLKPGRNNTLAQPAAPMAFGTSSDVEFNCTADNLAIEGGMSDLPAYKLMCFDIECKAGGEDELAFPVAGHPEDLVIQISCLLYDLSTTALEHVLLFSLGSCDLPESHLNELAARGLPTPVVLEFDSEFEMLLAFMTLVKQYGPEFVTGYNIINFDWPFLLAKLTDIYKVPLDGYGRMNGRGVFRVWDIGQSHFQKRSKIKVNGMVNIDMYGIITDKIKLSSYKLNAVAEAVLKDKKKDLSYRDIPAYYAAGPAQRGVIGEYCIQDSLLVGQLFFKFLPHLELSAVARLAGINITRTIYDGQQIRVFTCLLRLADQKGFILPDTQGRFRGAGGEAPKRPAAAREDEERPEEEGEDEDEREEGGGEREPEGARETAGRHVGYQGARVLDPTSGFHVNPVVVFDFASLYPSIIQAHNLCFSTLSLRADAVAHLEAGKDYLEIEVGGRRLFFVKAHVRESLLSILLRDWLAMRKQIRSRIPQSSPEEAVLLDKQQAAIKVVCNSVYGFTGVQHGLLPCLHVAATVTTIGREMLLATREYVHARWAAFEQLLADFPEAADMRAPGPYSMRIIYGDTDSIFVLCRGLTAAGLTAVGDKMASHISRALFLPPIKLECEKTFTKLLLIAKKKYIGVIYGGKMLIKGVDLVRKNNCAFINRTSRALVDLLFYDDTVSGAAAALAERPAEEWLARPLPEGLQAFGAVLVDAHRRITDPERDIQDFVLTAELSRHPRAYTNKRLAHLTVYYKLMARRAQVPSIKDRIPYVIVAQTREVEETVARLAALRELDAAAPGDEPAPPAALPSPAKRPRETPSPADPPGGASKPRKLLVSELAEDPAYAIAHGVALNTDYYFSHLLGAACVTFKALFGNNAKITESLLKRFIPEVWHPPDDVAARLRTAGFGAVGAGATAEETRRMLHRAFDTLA
reported_metric: IC50 (nM)

P: O=C(NCc1ccc(Cl)cc1)c1cnc2ccc(-c3cccs3)cc2c1O
Q: CN(C)CC(=O)OCCCc1cc(F)c2ncc(C(=O)NCc3ccc(Cl)cc3)c(O)c2c1
Query: Task for the reader: decide whether P or Q has the larger IC50. Use the label to indicate which entry you chose.
Reply: Q
(Q: 1400 nM, P: 800 nM)

a: COc1cc(C#CCO)cc2c(O)c(C(=O)NCc3ccc(Cl)cc3)cnc12
b: N#CCCc1cc(F)c2ncc(C(=O)NCc3ccc(Cl)cc3)c(O)c2c1
Query: Param metric = IC50; output whichever of a , b has the minimum value. Returns: label corresponding to the selected item.
Reply: a
(a: 660 nM, b: 3500 nM)

1: COCC#Cc1cc(OC)c2ncc(C(=O)NCc3ccc(Cl)cc3)c(O)c2c1
2: COc1cc(CCCO)cc2c(O)c(C(=O)NCc3ccc(Cl)cc3)cnc12
Query: Which record shows the lower IC50: the first, 1 , or the second, 2 ? Write down the label of the entry you select.
Reply: 2
(2: 250 nM, 1: 730 nM)

* * *

The compounds below have reported pIC50 for UniProt P09252.
Sequence (P09252 whole entry): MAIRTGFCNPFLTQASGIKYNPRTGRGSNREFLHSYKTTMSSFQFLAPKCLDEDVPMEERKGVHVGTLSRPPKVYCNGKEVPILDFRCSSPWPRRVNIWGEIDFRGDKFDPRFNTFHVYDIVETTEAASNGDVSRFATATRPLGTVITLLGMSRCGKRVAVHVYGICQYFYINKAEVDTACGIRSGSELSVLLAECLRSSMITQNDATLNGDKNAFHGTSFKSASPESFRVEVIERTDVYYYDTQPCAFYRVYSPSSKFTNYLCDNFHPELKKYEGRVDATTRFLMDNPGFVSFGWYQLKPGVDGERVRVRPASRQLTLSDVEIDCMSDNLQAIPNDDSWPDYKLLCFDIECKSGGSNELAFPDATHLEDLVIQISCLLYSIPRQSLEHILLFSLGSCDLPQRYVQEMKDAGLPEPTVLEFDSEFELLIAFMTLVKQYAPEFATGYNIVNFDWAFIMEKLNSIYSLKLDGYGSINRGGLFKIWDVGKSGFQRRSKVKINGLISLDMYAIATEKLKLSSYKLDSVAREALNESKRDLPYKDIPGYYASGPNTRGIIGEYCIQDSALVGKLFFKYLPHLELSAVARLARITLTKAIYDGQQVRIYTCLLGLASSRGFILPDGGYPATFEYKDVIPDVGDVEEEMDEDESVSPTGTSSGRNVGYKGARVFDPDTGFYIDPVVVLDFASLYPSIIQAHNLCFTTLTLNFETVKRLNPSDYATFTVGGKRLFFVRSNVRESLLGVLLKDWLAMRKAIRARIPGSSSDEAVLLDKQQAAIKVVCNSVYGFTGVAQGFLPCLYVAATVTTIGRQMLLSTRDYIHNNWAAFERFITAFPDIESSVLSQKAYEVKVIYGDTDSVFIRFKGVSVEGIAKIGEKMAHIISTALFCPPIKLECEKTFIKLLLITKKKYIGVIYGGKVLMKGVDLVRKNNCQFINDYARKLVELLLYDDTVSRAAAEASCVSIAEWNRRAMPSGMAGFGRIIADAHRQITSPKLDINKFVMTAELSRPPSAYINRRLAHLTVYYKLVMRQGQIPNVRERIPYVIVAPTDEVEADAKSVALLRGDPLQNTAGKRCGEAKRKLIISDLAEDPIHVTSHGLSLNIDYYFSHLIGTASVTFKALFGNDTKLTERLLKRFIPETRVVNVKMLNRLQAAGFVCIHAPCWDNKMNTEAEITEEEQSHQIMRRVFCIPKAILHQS
pIC50: −log10 of the molar value.
reported_metric: pIC50

{"compound": "O=C(NCc1ccc(Cl)cc1)c1cnc2c(F)cc(-c3cccs3)cc2c1O [Example 75]", "target_of_assay": "UniProt P09252", "pIC50": 6.80}
{"compound": "Nc1ccc2c(O)c(C(=O)NCc3ccc(Cl)cc3)cnc2c1 [Example 2]", "target_of_assay": "UniProt P09252", "pIC50": 6.22}
{"compound": "O=C(NCc1ccc(Cl)cc1)c1cnc2c(F)cc(C#CCO)cc2c1O [Example 53]", "target_of_assay": "UniProt P09252", "pIC50": 6.41}

1: O=C(NCc1ccc(Cl)cc1)c1cnc2ccc(CCCO)cc2c1O [Example 144]
2: Nc1ccc2ncc(C(=O)NCc3ccc(Cl)cc3)c(O)c2c1 [Example 28]
3: COCC#Cc1cc(OC)c2ncc(C(=O)NCc3ccc(Cl)cc3)c(O)c2c1 [Example 119]
4: N#CCCc1cc(F)c2ncc(C(=O)NCc3ccc(Cl)cc3)c(O)c2c1 [Example 138]
5: CS(=O)(=O)Nc1ccc2ncc(C(=O)NCc3ccc(Cl)cc3)c(O)c2c1 [Example 29]
Query: // smallest pIC50 at index 0, largest at the end The reply should contain the labels ordered as requested.
Reply: 5, 2, 4, 3, 1
(5: 4.60, 2: 5.08, 4: 5.70, 3: 6.24, 1: 7.15)

* * *

target_of_assay: HCMV polymerase (Human cytomegalovirus)
Construct: made in house; host or cells: recombinant baculovirus-infected SF-9 cells
protocol: HCMV polymerase scintillation proximity assay (SPA), modified version
Type: biochemical
conditions_used: CMV polymerase; Table 1; modified assay with 4.5 mM DTT, compounds in 100% DMSO; read-out: Antiviral Selective Polymerase IC50 Values, CMV
reported_metric: IC50 (µM)

{"compound": "O=C(NCc1ccc(Cl)cc1)c1cnc2c(F)cc(CCCCO)cc2c1O [Example 99]", "IC50, µM": 0.14}

P: O=C(NCc1ccc(Cl)cc1)c1cnc2c(F)cc(S(=O)(=O)NCCC3=CCCCC3)cc2c1O [Example 237]
Q: CS(=O)(=O)c1cc(F)c2ncc(C(=O)NCc3ccc(Cl)cc3)c(O)c2c1 [Example 176]
R: COCCOc1c(F)cc2c(O)c(C(=O)NCc3ccc(Cl)cc3)cnc2c1OCCOC [Example 85]
S: O=C(NNc1ccc(Cl)cc1)c1cnc2c(F)c(F)c(F)cc2c1O [Example 16]
T: COc1cc(C#CCO)cc2c(O)c(C(=O)NCc3ccc(Cl)cc3)cnc12 [Example 118]
Query: Endpoint returns the given compounds ordered by ascending IC50. API: response body holds the labels in the requested order.
Reply: T, S, P, Q, R

a: O=C(NCc1ccc(Cl)cc1)c1cnc2c(F)cc(S(=O)(=O)NCc3ccco3)cc2c1O [Example 194]
b: Cc1nnc(-c2cc(F)c3ncc(C(=O)NCc4ccc(Cl)cc4)c(O)c3c2)s1 [Example 100]
c: O=C(NCc1ccc(Cl)cc1)c1cnc2c(F)cc(S(=O)(=O)NCCc3c[nH]c4ccccc34)cc2c1O [Example 193]
d: O=C(NCc1ccc(Cl)cc1)c1cnc2cc(C(F)(F)F)ccc2c1O [Example 1]
Query: Hi! Can you put these in order of IC50, lowest number first? Output the labels ranked as instructed.
Reply: c, b, a, d

I: COc1ccc(S(=O)(=O)Nc2cc(F)c3ncc(C(=O)NCc4ccc(Cl)cc4)c(O)c3c2)cc1 [Example 187]
II: O=C(NCc1ccc(Cl)cc1)c1cnc2c(F)cc(S(=O)(=O)NCc3cccc(I)c3)cc2c1O [Example 242]
III: O=C(NCc1ccc(Cl)cc1)c1cnc2ccc(Br)cc2c1O [Example 57]
IV: O=C(NCc1ccc(Cl)cc1)c1cnc2c(F)ccc(F)c2c1O [Example 17]
Query: Number of compounds to sort: 4. Sort criterion: IC50, ascending. Give your ranking as a list of the labels in the requested order.
Reply: IV, III, II, I

a: Cc1ccc2c(O)c(C(=O)NCc3ccc(Cl)cc3)cnc2c1 [Example 11]
b: CCOC(=O)/C=C/c1cc(F)c2ncc(C(=O)NCc3ccc(Cl)cc3)c(O)c2c1 [Example 112]
Query: Consider entries a and b . Which has the numerically lower IC50? Refer to your chosen item by its label in the answer.
Reply: b
